System: PXR:RXRa (NR concentration 270 nM, RXRa partner concentration 90 nM)
Assay: PBM binding z-score (relative to random genomic background probes); higher = stronger binding; sequences stand for … in GC…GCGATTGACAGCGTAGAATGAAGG
Threshold rule: PBM binding z-score greater than or equal to 0.07 is Yes; below that, No.

ACAGACAGGTGATGAAGGTAACTAAGGCTATCAT :: No
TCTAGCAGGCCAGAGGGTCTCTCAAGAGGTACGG :: No
ATCTCTAGGTAAGCAAGTTCAGTGAATGCCGAAC :: Yes

In: Could you tell me if the measured PBM binding z-score of "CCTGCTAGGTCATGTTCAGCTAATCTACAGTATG" reaches 0.07 or more?
Out: Yes

In: Assess whether reported PBM binding z-score for "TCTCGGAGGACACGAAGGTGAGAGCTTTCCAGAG" sits at 0.07 or higher.
Out: No

In: Can "AATACAGGGTCATCGTAAGCCAGAGTACGCACAG" be said to have PBM binding z-score at or above 0.07?
Out: Yes

---

Tested on: PPARg:RXRa 90nM:30nM, anti-RXR (NR concentration 90 nM, RXRa partner concentration 30 nM)
Test: PBM binding z-score (relative to random genomic background probes); higher = stronger binding; sequences stand for … in GC…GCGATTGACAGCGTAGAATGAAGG
assay_endpoint: PBM binding z-score
// no unit, no text: just the number

CGTCCCAGGTCAGCAGGTCAGTGAAAGCGACGTG :: 1.51
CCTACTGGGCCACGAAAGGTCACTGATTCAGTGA :: 4.02

In: Lookup: PBM binding z-score / PPARg:RXRa 90nM:30nM, anti-RXR (NR concentration 90 nM, RXRa partner concentration 30 nM) / "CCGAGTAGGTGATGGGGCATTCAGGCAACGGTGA"
Out: 4.61

In: Can you look up PBM binding z-score on PPARg:RXRa 90nM:30nM, anti-RXR (NR concentration 90 nM, RXRa partner concentration 30 nM) for "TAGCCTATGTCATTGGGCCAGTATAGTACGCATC" ?
Out: 0.065

In: Find the measured PBM binding z-score: item "ATCTCTAGGTAAGACTCTGTTCAGTGAAGAACGC" , target or system PPARg:RXRa 90nM:30nM, anti-RXR (NR concentration 90 nM, RXRa partner concentration 30 nM).
Out: 0.426

In: // fetch PPARg:RXRa 90nM:30nM, anti-RXR (NR concentration 90 nM, RXRa partner concentration 30 nM) PBM binding z-score for "ACTTGCGGGTCAACGAGGTTATAGCACGCGTATA"
Out: 4.42

In: // lookup PBM binding z-score | system=PPARg:RXRa 90nM:30nM, anti-RXR (NR concentration 90 nM, RXRa partner concentration 30 nM) | key= "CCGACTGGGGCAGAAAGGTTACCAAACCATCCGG"
Out: 2.07

In: Please tell me: PBM binding z-score of "AGCGAAAGGTCGACGAGGTGAGTATACACCGTTT" , system PPARg:RXRa 90nM:30nM, anti-RXR (NR concentration 90 nM, RXRa partner concentration 30 nM)?
Out: 2.31

In: Notebook: pull reported PBM binding z-score for PPARg:RXRa 90nM:30nM, anti-RXR (NR concentration 90 nM, RXRa partner concentration 30 nM), entry "TCTAGGTGGTCAAAGGTCACACACTCGAAATGCG"
Out: 10.2

In: PBM binding z-score of "GCTGCAAGGTCAGGTTGGTCAGCTAACGGGTACG" on PPARg:RXRa 90nM:30nM, anti-RXR (NR concentration 90 nM, RXRa partner concentration 30 nM)?
Out: 1.42

In: Which measured PBM binding z-score belongs to "GCGACTGGGGCATCAGCAGGGTACCATAACTTAA" , tested on PPARg:RXRa 90nM:30nM, anti-RXR (NR concentration 90 nM, RXRa partner concentration 30 nM)?
Out: -0.166

In: Form: Entry = "CAAACTAGGTCAGGAGGTCAAAGTCCGCTTCCCG" | System = PPARg:RXRa 90nM:30nM, anti-RXR (NR concentration 90 nM, RXRa partner concentration 30 nM) | PBM binding z-score = ____
Out: 7.43
